# TESTED TARGET: UniProtKB P06239
# PROCEDURE TEXT: Inhibition of Lck by lance assay
pIC50: −log10 of the molar value.
# pIC50 listing for each entry below

STRUCTURE NOTATION	pIC50
Cc1nc(NCCN2CCOCC2)cc(Nc2cc(-n3c(Nc4c(C)cccc4Cl)nc4ccccc43)ncn2)n1	8.30
Cc1nc(Nc2cc(-n3c(Nc4c(C)cccc4Cl)nc4ccccc43)ncn2)cc(N2CCN(CCO)CC2)n1	7.60
Cc1cccc(Cl)c1Nc1nc2ccccc2n1-c1cc(Nc2cc(CN3CCOCC3)ccn2)ncn1	7.85

====

Observed IC50 for Tyrosine-protein kinase Lck (Homo sapiens), reported per entry below.

STRUCTURE NOTATION	RELATION	IC50, nM
Cc1cccc(Cl)c1Nc1nc2ccccc2n1-c1cc(Nc2ncnc(NCCN3CCOCC3)c2C)ncn1	=	119
Cc1cccc(Cl)c1Nc1nc2ccccc2n1-c1cc(N)ncn1	=	514
Cc1cccc(Cl)c1Nc1nc2ccccc2n1-c1cc(Cl)ncn1	>	2500
Cc1cccc(Cl)c1Nc1nc2ccccc2n1-c1cc(Nc2ccc(CCN3CCOCC3)cn2)ncn1	=	31
Cc1cccc(Cl)c1Nc1nc2ccccc2n1-c1cc(NN2CCOCC2)ncn1	>	2500
